- Tested on: M14
- assay_protocol: NCI tumour cell line growth inhibition, 48 h
Activity calls are given as the source filed them. Rule as the data show it: active = GI50 up to about 1.1 µM and inactive = higher.
Assign a class; possible classes are TRUE (active), FALSE (inactive)

Please share the test call associated with `CCOC(=O)c1sc2nc(SC)nc3c2c1NCN3C` .
FALSE

Please share the test call associated with `NC(=O)/C=C/c1c[nH]c2nccnc12` .
FALSE

Please share the test call associated with `COc1cc([C@@H]2c3cc4c(cc3[C@@H](Nc3ccc(NC(=O)c5cc([N+](=O)[O-])cn5C)cc3)[C@H]3COC(=O)[C@H]23)OCO4)cc(OC)c1O` .
TRUE

Please share the test call associated with `CCOC(=O)/C(=C/c1ccc(C(F)(F)F)cc1)N(CC)CC` .
FALSE

Please share the test call associated with `Cc1cccc(NC(=O)Cc2nc3ccccc3s2)c1C` .
FALSE

Please share the test call associated with COc1ccc(C2C3=C(N=C4SC(C(C)=O)=C(C)N42)c2ccccc2CC3)cc1 (stereo not drawn) .
FALSE

Please share the test call associated with CC(C)(C)COC1C2(OCCO2)C2CCC1(C)C2(C)C (stereo not drawn) .
FALSE

Please share the test call associated with OC1c2ccccc2C2(O)C1C(c1ccccc1)C(c1ccccc1)C2(O)c1ccccc1 (stereo not drawn) .
FALSE

Please share the test call associated with CCOP(=O)(OCC)C(C)(CC)N/C(N)=N/C#N (stereo not drawn) .
FALSE

Please share the test call associated with O=C1Sc2ccccc2C(=O)N2CCSC12 (stereo not drawn) .
FALSE

Please share the test call associated with `CCOC(=O)/C(=C/c1ccco1)P(=O)(OCC)OCC` .
FALSE

Please share the test call associated with `Cn1c(=S)c2nc(SCCN3C(=O)c4ccccc4C3=O)[nH]c2n(C)c1=O` .
FALSE

Please share the test call associated with `N=S(c1ccccc1[N+](=O)[O-])c1ccccc1[N+](=O)[O-]` .
FALSE

Please share the test call associated with `Nc1n[n+]2cc(-c3ccccc3)n(CC(=O)c3ccccc3)c2s1` .
FALSE

Please share the test call associated with N/C(=N/O)c1cn(C2OC(CO)C(O)C2O)c2ncnc(NO)c12 (stereo not drawn) .
TRUE

Please share the test call associated with `CCOC(=O)n1ccc2c(C(=O)OC)c(C(=O)OC)cc(/C(=C/C(=O)OC)C(=O)OC)c21` .
FALSE

Please share the test call associated with COC(=O)C1(O)C(c2ccccc2)=NC2(C)CCCC21 (stereo not drawn) .
FALSE

Please share the test call associated with Cn1c(=O)oc2cc(C3CCC(=O)N3Cc3ccc(Cl)cc3)ccc21 (stereo not drawn) .
FALSE

Please share the test call associated with `Cc1cc(C)nc(NS(=O)(=O)c2ccc(Nc3c4ccc(Cl)cc4nc4c(C(=O)Nc5ccc(S(=O)(=O)N=C(N)N)cc5)cccc34)cc2)n1` .
FALSE

Please share the test call associated with `O=C(NCCN(CCNC(=O)c1cccc(O)c1O)CCNC(=O)c1cccc(O)c1O)c1cccc(O)c1O` .
FALSE

Please share the test call associated with C=CCc1cc(OC)c2c(c1)C(O)CC(c1ccccc1)O2 (stereo not drawn) .
FALSE

Please share the test call associated with `COC(=O)c1c(CC(=O)OC(C)C)cc2n(c1=O)Cc1c-2nc2ccccc2c1OC` .
FALSE

Please share the test call associated with `c1ccc2c(c1)Nc1nc3nonc3nc1N2` .
FALSE

Please share the test call associated with CCCC1NC(=O)C(CC(C)C)NC(=O)c2cccc(n2)C(=O)NC(CC(C)C)C(=O)NC(CCC)C(=O)NC(C(=O)OC)CCCCNC1=O (stereo not drawn) .
FALSE

Please share the test call associated with C/C(=N\NC(=N)N)C(CN1CCCCC1)C(c1ccccc1)c1c(O)c2ccccc2oc1=O (stereo not drawn) .
FALSE

Please share the test call associated with `CO[C@@H]1/C=C\C=C(/C)C(=O)NC2=CC(=O)C(NCCN(C)C)=C(C[C@@H](C)C[C@@H](OC)[C@@H](O)[C@H](C)/C=C(\C)[C@H]1OC(N)=O)C2=O` .
TRUE

Please share the test call associated with `CCCCSC1=N/C(=C\c2ccc(N(C)C)cc2)C(=O)N1` .
FALSE

Please share the test call associated with `COC(=O)c1cccc2c1Oc1ccccc1S2` .
FALSE

Please share the test call associated with `CSC(=N/C=C/c1ccccc1)SC` .
FALSE

Please share the test call associated with `CCn1nc(C)c2c1C(=O)NCC(=O)N2` .
FALSE

Please share the test call associated with `O=C(/C=C/c1ccccc1Cl)c1ccc(Cl)cc1Cl` .
FALSE

Please share the test call associated with `CC1=NN(C(=O)c2ccccc2O)C(=O)/C1=C/c1ccc([N+](=O)[O-])cc1` .
TRUE

Please share the test call associated with `CCO/C(CCn1[nH]c(=O)c(Cl)c(Cl)c1=O)=N\NC(=O)C(=O)NN` .
FALSE

Please share the test call associated with CC(CC[C@@]1(C)C(=O)CCC2O[C@]21C)[C@H]1C[C@@H](c2ccoc2)OC1=O (stereo partly drawn) .
FALSE

Please share the test call associated with `Nc1ccc(-c2nc3ccccc3s2)cc1` .
FALSE

Please share the test call associated with `Fc1ccc(Nc2nnc(-c3ccccn3)s2)cc1` .
FALSE

Please share the test call associated with CCOC(=O)C(O)(NC(C)=O)C(F)(F)F (stereo not drawn) .
FALSE

Please share the test call associated with CC1(CCC2C=CCC2)CCCNC1=S (stereo not drawn) .
FALSE
